B1: VENTX (parent)
chain: VFQHHQYLSPLERKRLAREMQLSE

Variants of: B1
assay: protein stability index of a GFP-peptide fusion (GPS, HEK-293T) (PSI 1-6); higher = more stable;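 note: lentivirally expressed fusions sorted by FACS into six bins by GFP to DsRed ratio, PSI derived from sequencing read proportions per bin multiplied by bin number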
assay-setup: c terminus: a fixed tail appended
I would appreciate it if you labelled entries 1 (yes) when protein stability index is 3 or higher, otherwise 0 (no).

mutant-code: E24I
assigned-category: 0 (no)
--
mutant-code: L8H
assigned-category: 0 (no)

Task: Check this variant for protein stability index at or above 3: "M20N"
Output: 0 (no)

Task: Check this variant for protein stability index at or above 3: "Y7V"
Output: 1 (yes)

Task: Check this variant for protein stability index at or above 3: "H5P"
Output: 1 (yes)
